# experiment description: soluble on expression in E. coli; label from the status in PepcDB or PDB records
experimental readout: soluble on expression in E. coli

| polymer sequence | result value |
| --- | --- |
| MSYVTTKDGVQIFYKDWGPRDAPVIHFHHGWPLSADDWDAQLLFFLAHGYRVVAHDRRGHGRSSQVWDGHDMDHYADDVAAVVAHLGIQGAVHVGHSTGGGEVVRYMARHPEDKVAKAVLIAAVPPLMVQTPGNPGGLPKSVFDGFQAQVASNRAQFYRDVPAGPFYGYNRPGVEASEGIIGNWWRQGMIGSAKAHYDGIVAFSQTDFTEDLKGIQQPVLVMHGDDDQIVPYENSGVLSAKLLPNGALKTYKGYPHGMPTTHADVINADLLAFIRS | soluble |
| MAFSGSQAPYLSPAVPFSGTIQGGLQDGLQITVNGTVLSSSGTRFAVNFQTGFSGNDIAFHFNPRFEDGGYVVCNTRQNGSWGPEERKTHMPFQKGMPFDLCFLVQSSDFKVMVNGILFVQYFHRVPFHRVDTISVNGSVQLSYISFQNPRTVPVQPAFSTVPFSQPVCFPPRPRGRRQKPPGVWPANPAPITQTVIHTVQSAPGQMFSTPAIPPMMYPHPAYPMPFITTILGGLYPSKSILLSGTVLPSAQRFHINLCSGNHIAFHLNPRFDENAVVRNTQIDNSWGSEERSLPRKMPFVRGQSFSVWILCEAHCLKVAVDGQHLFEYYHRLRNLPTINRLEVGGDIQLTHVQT | soluble |

====

# experiment description: soluble on expression in E. coli; label from the status in PepcDB or PDB records

| polymer sequence | soluble on expression in E. coli |
| --- | --- |
| STLSRFAYNGKRCPSSYNILDNSKIISEECRKELTALLHHYYPIEIDPHRTVKEKLPHMVEWWTKAHNLLCQQKIQKFQIAQVVRESNAMLREGYKTFFNTLYHNNIPLFIFSAGIGDILEEIIRQMKVFHPNIHIVSNYMDFNEDGFLQGFKGQLIHTYNKNSSVCENCGYFQQLEGKTNVILLGDSIGDLTMADGVPGVQNILKIGFLNDKVEERRERYMDSYDIVLEKDETLDVVNGLLQHILCQGVQLEMQGP | soluble |
| MAHHHHHHMDQFIRSRTDWKERVVFRLVWITASRWFGISGLHSQQFYTGAGRDPNLGLARGAEDGEGGSPPRLSVRQDTRAGGCVRHYKVMQDTSTQRKAHESYDCPLGASSGLLECHGAFHKTRCVEARCSNRGGVQFGPTRDPAVGEARRPVRPSPEYCLIFGEIHHNADPGVVASRIDVKRETAEGQ | not soluble |
| RLSDTLMKQALSSVITQEKKRLKSQPKSIAQDIQPPNSMIKNALDEKDSHPFGDCFSDDEFLAIHLYTSCLYRPINHHLRYAPKNDVAPVVEAMNSGLAKLAQYPDYQVSGQLHRGIKQKMDDGEVMSRFKPGNTYRDDAFMSTSTRMDVTEEFTSDVTLHLQSSSAVNIGPFSKNPYEDEALIPPLTPFKVTGLHKQDDRWHVHLNEIAESSDE | not soluble |
| MGSDKIHHHHHHMPPLPVLNRPQIHTSVTEISHAIDRTIKEELFPVAYTTEEEQYFKTNPKPAYIDELIKDAKEFIDLQYSLKRNKIVLITSGGTTVPLENNTVRFIDNFSAGTRGASSAEQFLANGYSVIFLHREFSLTPYNRSFSHSINTLFLDYIDSEGKIKPEFAENVLKNKKLYDKYMEKEEKLLLLPFTTVNQYLWSLKSIAKLLNNSGCLFYLAAAVSDFFVPYSRLPQHKIQSGDNGKMGANNDTEGTTRTTPDGKLIVNLDPVPKFLRRLVESWATQAMIVSFKLETDESMLLYKCTQALDRYNHQLVIGNLLQTRNKQVIFVSPENRKGDWVRLDEKHHIIEEMIIPEVIARHDKWVAHSKTKLATK | not soluble |
| GPGSMSEELILQWAKRVSDAEEELHRMEEDINAVKQQRKLLKADIRKYEDVVASEKCDLLTSLERVEAQAKDLGAQCEATLTEKDRVEAEYMATLDAYENLHFLVREIKDAEEHLQSRDDLEACLQRESVTWAEEEHTLRRKLHELQQQQAQARRAQEAEVRELEAQLSNVEQRQRDERAGRCVEVAQAARRVVHSSRQPTPASPKPVTSAEEDAFVSANAGGAMPIRSAPLKSCLKTPVNGSTSGNAAPTAPRHTTAASAPVSRCASQSLVSDAAASGVQRQGVDGGDQPSLRLLQEMRAYSYGAPCKAGARKREFLGDATNNQ | soluble |
| QTVQSTSKGSDYIVAVTACTTGIAHTYMAEEALKKKAAEMGVGIKVETNGASGVGNKLTSSDIARAKGVIIAADKAVEMDRFDGKPLVSRPVADGIKKSEDLINIILDNKAQTY | not soluble |
| MSLQNRIMITGAGSGLGREMALRWAREGWRLALSDINDAGLQETLALVREAGGDGFVQRCDVRDYSQLTAFAQTCEERFGGMDIIVNNAGVASGGFFNELSLEDWDWQIAINLMGVVKGCKAFLPMLQASKGKIINIASMAALMQAPAMSNYNVAKAGVVALSESLLVELRDQDVGVHVVCPSFFQTNLLDSFRGPTPAMKAQIGRLLEKSPITATDIADYIFTQVAEGEFMILPHEEGRLAWDMKRQQPQAMYDEMTVMCAKMRAKAQKGEGHHHHHH | soluble |
| STRDDDDDEDDEEEEDSGAWGRESYAFDGFHPTEEFGFSFSPRGGMRFHGNFGFDDLVRDFNSIFSEMGAWTLPSHSPELPGPESETPGVRLREGQTLRDSMLKYPDSHQPRIFEGVLESHAKPESSKPAPDWGSQGPFHRLDDTWPVSPHSRAREDKDLDSQVSQEGLGPLLQPQPKSYFKSISVTKITKPDGTVEEHRTVVDGEGRRETTVTHQEAHDSSRSDPDPPRSSALDDPFSILDLLLGRWFRSR | soluble |
| STFEELNGDYSIERMDSVIKALEEVLRSALPQGCITVGVYEAAKSLNVDPDNVVLCILATDDDDVKDVALQIHFTLIQAFCCENDINILRVNNTRRLANILGGAGMHGSEQMDLHCILVTVPHASTWKNPALGKVNRFCRESRCMDQWVPIINLPER | soluble |
| MSLIKMQVWKKLFAKSPFKPLIRHAEVVVQTVETLEKALDSWARGDYENMKEYAKKVDDLEDIADKIKSELRDSITSKLLMPVQRTDILEYLHMQDKIADAAEDTAKWLLIKRNLDSIPNDIKDIILKMGKESIKAAKLVYEAIKQLDNVLESGFAEKEIKKEYKIIKQIEEVESKIDGLDSKLMEIVFTSELDWKDGLYILNIARTLSNISDKAKDTAERIRVLMNKEGHHHHHH | not soluble |
| MARFTDKVAIITGSSNGIGRATAVLLATDGAKVTITGRDAARLEETRQAILKAGISATNVNSVVADVTTAEGQDLLISSTLDKFGKINILINNAGANIPDSQGQTRTKCSIENLTKMFQLNLQSVVEMVQKVRPHLAKTRGEIVNISSIGAGPAAQPASPYYSSAKAALDQYSRCAAIDLISEGIRINVVQPGFVSTGFSTAARGLSADESVKFYDLMGSLPHCIPAGYCGQPDHLASVIAFLVDRKVSEYIVGQTIIADGGSSLVIGCHAPRQ | not soluble |
| MNDEIISNLHMLSAVHRSLPRDARKDYLSRVRGKVEHLYKAIQGNKKPEINFEVSLEEAKLADKYLKDAKKVRIGNTMSDRDEYLGLLEIADNDERKCVFIHVSIGGIEEGCIVIQLFNDIVPRTAQNFESWCTGEKRGKYGEPLHLKECEIKMILPGSVIGFGDFEENCEYFDDEKSKENHCKNVLSMNIDKSENSSAPLFNMELSDGVDRAGKAIVFGKVVMGNRVIEKVLLAGSRDGIPEQTVKISDCGEMFRGGHSHF | not soluble |

====

# experiment description: soluble on expression in E. coli; label from the status in PepcDB or PDB records

| polymer sequence | soluble on expression in E. coli |
| --- | --- |
| MRHAVHQELIDTNPAANLGGVTTPPVRRHYPALPLERLPELLERIGAYHQGRELTRHAVLLMLHVFIRSSELRFARWSEIDFTNRVWTIPATREPIIGVRYSGRGAKMRMPHIVPLSEQSIAILKQIKDITGNNELIFPGDHNPYKPMCENTVNKALRVMGYDTKKDICGHGFRAMACSALMESGLWAKDAVERQMSHQERNTVRMAYIHKAEHLEARKAMMQWWSDYLEACRESYAPPYTIGKNKFIP | not soluble |
| MSEKLQVVTLLGSLRKGSFNGMVARTLPKIAPASMEVNALPSIADIPLYDADVQQEEGFPATVEALAEQIRQADGVVIVTPEYNYSVPGGLKNAIDWLSRLPDQPLAGKPVLIQTSSMGVIGGARCQYHLRQILVFLDAMVMNKPEFMGGVIQNKVDPQTGEVIDQGTLDHLTGQLTAFGEFIQRVKI | not soluble |
| MLLELPATNSALAIKSVLMAMTPNNDAILVVGERGHIINWQNDDNWQQLQSPVSVAITDVTILSDGSKVAVGHDGVILKVDSNSTTWRKVFTGKEITQFQIAQLKQQYQSLEQVILQTQDEDELEELTYQLDDLTFAIEDNQLELKSGPNKPLLSVTSTSNDTLFASGAYGILLSSKDKGETWQLVSNHLDNPDRFHLNTVIATADDQLYIVGENGMGFHSTDVGQTWSVMTLPYSGSLFGILANTVKTHTISTDDINSTKNKTQLVAFGLQGNIMVSLDGGGNWQHIKLPRSTSLLGGNFSKQGKVYLVGHGGVIVSFYPENLSTLTIKKHPSGAALSSVLVKDNSLILAGQFGISQWPIEAEELEHHHHHH | not soluble |
| FYDPLVFPSDEFDASISQVNEKINQSLAFIRKSDELLHNVNAG | soluble |
| MRCPRCHHNNSRVIDSRQADDGRAIRRRRECENCSYRFTTFERIEAAPLLVIKKNGDREEFNRDKILRGLIRSAEKRPVAMEQMVQIVDNVENRVRSLGENEVSTTLIGEYVMEDLVNLDEIAYIRFASVYRQFKDMSVFLKELQDIVDKAKSSSPDSEN | not soluble |
| MGSDKIHHHHHHMGPYRFVNREFLIITYRTDMDRLREIVPEPLEVKEPLVHYEFIRMPDSTGFGDYTESGQVIPVEYKGQPGGYTLAMYLNDHPPIAGGRELWGFPKKLAQPTLQTHIDTLLGTLDYGPVRVATGTMGYKHQELDLEEQAKRLAGANFLLKIIPHVDGSARVCELVRYYLQDIEMKGAWTGPASLQLAPHALAPVADLPVLEIVEARHLLADLTLGLGEVVYDYLAQ | not soluble |
| SLQHAPLNFVPDAAKVPPTPGQSPNARWSREAIEALFALPFNDLLFQAQQVHRAHFDANAVQLSTLLSIKTGGCPEDCSYCPQSARYDTGVEAEKLMPIDTVLEAAARAKQNGASRFCMGAAWRNPKPHQLDAVADMVRGVKAMGLETCVTLGMLKQEQAQQLKDAGLDYYNHNLDTAPEFYGEIITTRTYQDRLDTLEHVRDAGINVCCGGIVGLGESRHERAGLVAELANMEPYPDSVPINNLVKVEGTPLAGNEALDPFEFVRTIAVARITMPKAMVRLSAGREAMDDALQALCFMAGANSIFYGEKLLTTDNPEADADRKLLARLGMRVEVQDHLHQAEGAQHSHSSHCHIDITPADEG | soluble |
